Hello, the source for this data is patent US20150315188A1, in case you need it.

Exercise: for every item that follows, state its recorded Percentage inhibition of ligand binding, Adrenergic α2B (0.1 μM).
- study.system: Human adrenergic α2B receptor (Homo sapiens)
- Sequence (P18089 1-450): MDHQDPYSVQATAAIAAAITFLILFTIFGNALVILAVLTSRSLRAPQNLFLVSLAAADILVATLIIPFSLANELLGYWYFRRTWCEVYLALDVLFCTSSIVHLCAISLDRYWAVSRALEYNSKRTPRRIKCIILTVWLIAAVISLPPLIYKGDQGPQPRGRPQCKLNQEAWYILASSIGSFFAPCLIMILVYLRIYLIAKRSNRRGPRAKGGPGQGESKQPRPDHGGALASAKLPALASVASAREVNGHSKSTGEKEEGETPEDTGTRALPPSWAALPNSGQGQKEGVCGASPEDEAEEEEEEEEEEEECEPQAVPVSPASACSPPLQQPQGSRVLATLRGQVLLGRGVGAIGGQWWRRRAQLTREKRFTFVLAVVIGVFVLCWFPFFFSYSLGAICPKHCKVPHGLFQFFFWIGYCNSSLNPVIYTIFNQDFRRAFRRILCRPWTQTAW
- method.description: Radioligand binding, adrenergic α2B (Protocol Group B)
- Design: purchased Milipore (Millipore)
- cond: 0.1 μM compound; Protocol Group B; 0.1 µM
Numbers only, in %.

Known Percentage inhibition of ligand binding, Adrenergic α2B (0.1 μM) results, listed for orientation:
• CC(O)(Cn1c2c(c3cc(F)ccc31)C1CCCN1CC2)c1cccnc1 (stereo not shown) [51b] = 86
• Cc1cc(F)c2c(c1)c1c(n2CC(C)(O)c2cccnc2)CC2CCCN2C1 (single isomer, unassigned) [61a] = 88

Record Percentage inhibition of ligand binding, Adrenergic α2B (0.1 μM) for all entries; do not skip any.
1. Cc1ccc2c(c1)c1c(n2CC(O)c2ccncc2)CNC2CCCC12 (single isomer, unassigned) [34b]
2. Cc1ccc2c(c1)c1c(n2CC(C)(O)c2cccnc2)CC2CCC1N2C (single isomer, unassigned) [101b]

1: 32; 2: 32
